Values were extracted from ChEMBL document CHEMBL5058577.

- Test system: HEK-293T
- testDescription: Multiplex assay against HEK293T
- Type: toxicity, cell-based
- assayContext: human, 24 h, 1 µM, compound concentration 1 uM, replicate 2
Outcome label depends on Population Apoptotic (%) relative to 40%: at/above gives TRUE, below gives FALSE.

Textbook exercise: given the entry O=C(Nc1cc(-c2ccccc2)nn1-c1ccccc1F)c1ccc([N+](=O)[O-])cc1 , state whether its Population Apoptotic (%) is greater than or equal to 40%. FALSE

Item: C[C@H](NC(=O)CNC(=O)c1cccc(Cl)c1)c1ccccc1 TRUE

Now consider O=C(O)CCC/C=C\CC1C(O)CC(O)C1/C=C/C(O)COc1cccc(Cl)c1 (stereo not drawn) and answer again. FALSE

Thanks! And COc1cc(OC2CCN(C(C)=O)CC2)ccc1C(=O)N1CCC(N2C(=O)OCc3ccccc32)CC1 ? TRUE

Lookup CN(C)C(=O)Cn1cc(-c2ccc(-c3nnc4ccccn34)cc2)cn1 TRUE

# iterate: O=C(NCCNCC(O)COc1ccc(O)cc1)N1CCOCC1.O=C(NCCNCC(O)COc1ccc(O)cc1)N1CCOCC1.O=C(O)/C=C/C(=O)O (stereo not drawn) [XAMOTEROL FUMARATE] TRUE

How about this molecule: COc1cc2nc(N3CCN(C(=O)COc4c(OC)cccc4C(C)C)CC3)nc(N)c2cc1OC.Cl.Cl TRUE

How about OCCCNc1cc(-c2ccnc(Nc3cccc(Cl)c3)n2)ccn1 ? TRUE

Same question, CSc1nc(NC2CCCC2)c([N+](=O)[O-])c(NC2CCCC2)n1 this time FALSE

# iterate: Cc1cc(=O)n(C)c2cc(N3C(=O)CC[C@H](NS(=O)(=O)CC(C)C)[C@H]3c3ccc(Cl)cc3)ccc12 FALSE

Now give it for COc1cc2nc(N3CCN(C(=O)c4ccco4)CC3)nc(N)c2cc1OC.Cl [PRAZOSIN HYDROCHLORIDE] too. TRUE

====

- Test system: Fibroblast
- testDescription: Multiplex assay against human fibroblast
- Type: toxicity, cell-based
- assayContext: 48 h, 10 µM, compound concentration 10 uM, replicate 2
measuredQuantity: Population Healthy Nuclei (%)
Answers are plain numbers, in %.

In the examples that follow, each entry is paired with its recorded Population Healthy Nuclei (%).
O=C(Nc1cc(-c2ccccc2)nn1-c1ccccc1F)c1ccc([N+](=O)[O-])cc1 | 54
CN1C[C@H](C(=O)N[C@]2(C)O[C@@]3(O)[C@@H]4CCCN4C(=O)[C@H](Cc4ccccc4)N3C2=O)C[C@@H]2c3cccc4[nH]cc(c34)C[C@H]21.CS(=O)(=O)O [DIHYDROERGOTAMINE MESYLATE] | 44

Working through the 2 compounds below one at a time, give Population Healthy Nuclei (%) for each.
1. COc1c(Nc2ccc(S(C)(=O)=O)nc2C)ncnc1OC1CCN(C(=O)OC(C)C)CC1
2. Cc1nn(C)c2nc(NNC(=O)Nc3cc(Cl)nc(Cl)c3)cc(C(C)C)c12

1. 36
2. 56

====

- Test system: U2OS
- testDescription: Multiplex assay against U2OS
- Type: toxicity, cell-based
- assayContext: human, 24 h, 10 µM, compound concentration 10 uM, replicate 1
measuredQuantity: Population Pyknosed Nuclei (%)
Numbers only, in %.

Recorded Population Pyknosed Nuclei (%), per entry:
O=c1ccc2ccc(OCCCCN3CCN(c4cccc5sccc45)CC3)cc2[nH]1 [BREXPIPRAZOLE] | 44
Cc1cc(O)c(-c2ccc([C@@H](C)CN(C)C)cc2)c2c1[nH]c(=O)c1sccc12 | 27
Cc1sc2c(c1C)C(c1ccc(Cl)cc1)=N[C@H](CC(=O)OC(C)(C)C)c1nnc(C)n1-2 | 13
CN1C[C@H](C(=O)N[C@]2(C)O[C@@]3(O)[C@@H]4CCCN4C(=O)[C@H](Cc4ccccc4)N3C2=O)C[C@@H]2c3cccc4[nH]cc(c34)C[C@H]21.CS(=O)(=O)O [DIHYDROERGOTAMINE MESYLATE] | 8
Cc1cc(-c2ccc3c(c2)CC[C@H]3N2CC3(CCN(C(=O)Cc4cn5cc(C)sc5n4)CC3)C2)ncn1 [PF-5190457] | 9
COC(c1ccccc1)(c1ccccc1)[C@H](Oc1nc(C)cc(C)n1)C(=O)O [AMBRISENTAN] | 9

We now examine a further compound.
Quick one: Population Pyknosed Nuclei (%) of O=C(O)CCC/C=C\CC1C(O)CC(O)C1/C=C/C(O)COc1cccc(Cl)c1 (configuration not stated) [CLOPROSTENOL] ? 10
